# SYSTEM: UniProt:P25101
# Sequence (P25101 21-427): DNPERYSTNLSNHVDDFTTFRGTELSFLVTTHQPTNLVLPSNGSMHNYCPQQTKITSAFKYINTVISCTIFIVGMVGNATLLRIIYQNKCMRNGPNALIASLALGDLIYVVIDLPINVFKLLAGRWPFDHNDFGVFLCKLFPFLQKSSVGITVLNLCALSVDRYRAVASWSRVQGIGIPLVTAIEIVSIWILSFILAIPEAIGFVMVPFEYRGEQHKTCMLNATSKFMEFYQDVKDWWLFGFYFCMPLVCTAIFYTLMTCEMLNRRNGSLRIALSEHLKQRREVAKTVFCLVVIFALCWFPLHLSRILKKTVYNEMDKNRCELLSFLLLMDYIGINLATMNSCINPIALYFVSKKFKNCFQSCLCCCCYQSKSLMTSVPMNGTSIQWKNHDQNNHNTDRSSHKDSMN
# ASSAY_METHOD_TEXT: SAFETYScan GPCR Calcium Flux, Agonist
# RECORDED_CONDITIONS: read-out: RC50 (EC50)
MEASURED_PARAMETER: EC50

Query block: Bench note: what EC50 did C[C@H]1C[C@@H](O)CN(c2ncc(Cl)c(Nc3ccc4c(c3)c3c(c(=O)n4C)OCC(F)(F)[C@H](C4CC4)N3)n2)C1 [12a CCT373566] show?
Result block: > 10 µM

###

# SYSTEM: nAChR(a4/b2) (Homo sapiens, UniProt P17787+P43681)
# Sequence (P43681 29-627 limits assumed): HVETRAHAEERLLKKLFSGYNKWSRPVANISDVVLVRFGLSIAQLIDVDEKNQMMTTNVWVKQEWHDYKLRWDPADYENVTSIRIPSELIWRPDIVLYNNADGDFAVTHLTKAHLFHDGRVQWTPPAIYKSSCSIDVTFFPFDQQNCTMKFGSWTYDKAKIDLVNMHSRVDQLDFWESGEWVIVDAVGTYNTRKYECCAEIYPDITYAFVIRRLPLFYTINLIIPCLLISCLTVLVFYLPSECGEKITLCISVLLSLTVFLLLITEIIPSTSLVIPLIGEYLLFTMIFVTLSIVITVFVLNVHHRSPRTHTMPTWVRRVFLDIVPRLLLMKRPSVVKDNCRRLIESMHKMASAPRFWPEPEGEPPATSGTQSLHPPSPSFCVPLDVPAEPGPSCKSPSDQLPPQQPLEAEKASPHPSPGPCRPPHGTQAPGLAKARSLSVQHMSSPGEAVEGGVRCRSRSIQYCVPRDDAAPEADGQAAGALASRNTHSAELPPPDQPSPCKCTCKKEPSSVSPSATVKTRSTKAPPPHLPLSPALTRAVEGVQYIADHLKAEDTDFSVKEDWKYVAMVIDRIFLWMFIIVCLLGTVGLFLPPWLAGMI
# Sequence (P17787 26-502): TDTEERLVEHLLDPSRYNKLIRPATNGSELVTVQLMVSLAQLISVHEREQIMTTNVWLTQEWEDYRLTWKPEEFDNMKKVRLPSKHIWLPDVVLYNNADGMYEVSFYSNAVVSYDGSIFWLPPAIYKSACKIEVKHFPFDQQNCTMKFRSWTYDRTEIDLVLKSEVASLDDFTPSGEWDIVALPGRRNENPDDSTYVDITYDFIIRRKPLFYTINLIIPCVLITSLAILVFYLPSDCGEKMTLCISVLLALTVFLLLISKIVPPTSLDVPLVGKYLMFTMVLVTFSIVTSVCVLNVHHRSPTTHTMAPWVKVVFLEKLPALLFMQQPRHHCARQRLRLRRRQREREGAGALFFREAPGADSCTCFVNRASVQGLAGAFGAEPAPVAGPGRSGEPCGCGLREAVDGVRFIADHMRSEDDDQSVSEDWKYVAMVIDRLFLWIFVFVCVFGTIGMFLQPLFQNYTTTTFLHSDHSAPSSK
# ASSAY_METHOD_TEXT: SAFETYScan Ion Channel, Blocker
# RECORDED_CONDITIONS: read-out: RC50 (IC50)
# Excerpt: Supplement jm1c02175_si_002.xlsx, sheet "SAFETYScan" | column: RC50 (uM); Max Response
pIC50: −log10 of the molar value.
MEASURED_PARAMETER: pIC50

Query block: Given the molecule C[C@H]1C[C@@H](O)CN(c2ncc(Cl)c(Nc3ccc4c(c3)c3c(c(=O)n4C)OCC(F)(F)[C@H](C4CC4)N3)n2)C1 [12a CCT373566] , what is its reported pIC50?
Result block: < 5.00

###

# SYSTEM: endogenous BCL6 in OCI-Ly1 cells (Homo sapiens, UniProt P41182)
# ASSAY_METHOD_TEXT: cell-based
# RECORDED_CONDITIONS: OCI-Ly1, read-out: MSD degrader assay [OCI-Ly1] Dmax, mean maximal degradation of BCL6; OCI-Ly1 cells, 2 h
MEASURED_PARAMETER: Dmax (%)
One number for each entry, in %.

Please review the entries below; each comes with its answer.
>>> quantitative_result("Cn1c(=O)c2c(c3cc(Nc4nc(N5CCC(F)(F)[C@@H](CO)C5)ncc4Cl)ccc31)N[C@@H](C1CC1)C(F)(F)CO2 [9a]")
82.8
>>> quantitative_result("C[C@@H]1CCCN(c2ncc(Cl)c(Nc3ccc4c(c3)c3c(c(=O)n4C)OCC(F)(F)[C@H](C4CC4)N3)n2)C1 [15b]")
72.1
>>> quantitative_result("C[C@@H]1CN(c2ncc(Cl)c(Nc3ccc4c(c3)n(CCC(C)(C)O)c(=O)n4C)n2)C[C@H](C)C1(F)F [2 CCT369260]")
99.3
>>> quantitative_result("C[C@H]1C[C@@H](O)CN(c2ncc(Cl)c(Nc3ccc4c(c3)c3c(c(=O)n4C)OCC(F)(F)[C@H](C4CC4)N3)n2)C1 [12a CCT373566]")
91.5
>>> quantitative_result("Cn1c(=O)c2c(c3cc(Nc4nc(N5CCC(F)(F)[C@H](CO)C5)ncc4Cl)ccc31)N[C@@H](C1CC1)C(F)(F)CO2 [9b]")
44.7

Respectfully, I request Dmax for each entry included below.
1. Cn1c(=O)c2c(c3cc(Nc4nc(N5CCC[C@@H](O)C5)ncc4Cl)ccc31)N[C@@H](C1CC1)C(F)(F)CO2 [14a]
2. Cn1c(=O)n(CCC(C)(C)O)c2cc(Nc3nc(N4CCC(F)(F)C(O)C4)ncc3Cl)ccc21 (stereo not shown) [compound 3]

Result block:
[34.9, 77.5]

Query block: Need Dmax, item Cn1c(=O)c2c(c3cc(Nc4nc(N5CCC(F)(F)[C@@H](O)C5)ncc4Cl)ccc31)N[C@@H](C1CC1)C(F)(F)CO2 (single isomer, unassigned) [8a]
Result block: 59.6
